Reference for the values: patent US5672715A

Consider the following compounds and their measured inhibition at 7.95803 g/ha readings.
Tested on: Blackgrass
Experiment: post-emergence herbicide test
Format: in vivo
Settings: Alopecurus myosuroides, post-emergence, 0.0071 lb/A; Table 4a; read-out: % plant inhibition
Text: Topsoil was placed in aluminum pans having holes in the bottom and compacted to a depth of 1.3 to 1.6 cm from the top of the pan. A predetermined number of seeds of each of several dicotyledonous and monocotyledonous annual plant species and/or vegetative propagules for the perennial plant species were placed on the soil and pressed into the soil surface. The seeds and/or vegetative propagules were covered with soil and leveled. […]
Recorded Endpoint: inhibition at 7.95803 g/ha (%)

> print(dat)
                                   compound  target.under.test           recorded.endpoint  measurement
1  Cc1c(-c2cc(OCC(=O)OC(C)C)c(Cl)cc2F)nn(C)c1C(F)(F)F [Compound 38]         Blackgrass  inhibition at 7.95803 g/ha            0
2  C#CCOc1cc(-c2nn(C)c(C(F)(F)F)c2C)c(F)cc1Cl [Compound 39]         Blackgrass  inhibition at 7.95803 g/ha           10
3  COc1cc(-c2nn(C)c(C(F)(F)F)c2C)c(F)cc1[N+](=O)[O-] [Compound 36]         Blackgrass  inhibition at 7.95803 g/ha            0
4  COc1cc(-c2nn(C)c(C(F)(F)F)c2C)c(F)cc1Cl [Compound 37]         Blackgrass  inhibition at 7.95803 g/ha            0
5  Cc1c(-c2cc(F)c([N+](=O)[O-])cc2F)nn(C)c1C(F)(F)F [Compound 35]         Blackgrass  inhibition at 7.95803 g/ha            0

---

Test system: Bedstraw Catchweed
Assay: post-emergence herbicide test
Format: in vivo
Settings: Galium aparine, post-emergence, 4.5 lb/A; read-out: % plant inhibition
Consider the following compounds and their measured inhibition at 5043.82 g/ha readings.
Recorded Endpoint: inhibition at 5043.82 g/ha (%)

> print(dat)
                                   compound  measurement
1  Cc1c(-c2cc(F)c([N+](=O)[O-])cc2F)nn(C)c1C(F)(F)F [Compound 35]           85
2  Cc1c(-c2cc(O)c(Cl)cc2F)nn(C)c1C(F)(F)F [Compound 40]          100
3  Cc1c(-c2cc(F)ccc2F)nn(C)c1C(F)(F)F [Compound 1]           30
4  Cn1nc(-c2cc(F)ccc2F)c(C=O)c1C(F)(F)F [Compound 34]           80

---

Test system: Velvetleaf
Test: post-emergence herbicide test
Type: in vivo
Details: Abutilon theophrasti, post-emergence, 0.1785 lb/A; read-out: % plant inhibition
1 means recorded inhibition at 200.072 g/ha is 80% or above; 0 means it is below 80%.

> print(dat)
                                   compound  label
1  Cc1c(-c2cc(OCC(=O)OC(C)C)c(Cl)cc2F)nn(C)c1C(F)(F)F [Compound 38]      1
2  Cn1nc(-c2cc(F)ccc2F)c(C=O)c1C(F)(F)F [Compound 34]      0
3  Cc1c(-c2cc(F)c([N+](=O)[O-])cc2F)nn(C)c1C(F)(F)F [Compound 35]      0
4  COc1cc(-c2nn(C)c(C(F)(F)F)c2C)c(F)cc1[N+](=O)[O-] [Compound 36]      0
5  Cc1c(-c2cc(O)c(Cl)cc2F)nn(C)c1C(F)(F)F [Compound 40]      0
6  C#CCOc1cc(-c2nn(C)c(C(F)(F)F)c2C)c(F)cc1Cl [Compound 39]      1
7  Cc1c(-c2cc(F)ccc2F)nn(C)c1C(F)(F)F [Compound 1]      0
8  COc1cc(-c2nn(C)c(C(F)(F)F)c2C)c(F)cc1Cl [Compound 37]      0

---

System: Morning Glory
Experiment: post-emergence herbicide test
Format: in vivo
Details: Ipomoea, post-emergence, 0.0071 lb/A; read-out: % plant inhibition
Consider the following compounds and their measured inhibition at 7.95803 g/ha readings.
Recorded Endpoint: inhibition at 7.95803 g/ha (%)

> print(dat)
                                item.smiles  reading.unit  measurement
1  C#CCOc1cc(-c2nn(C)c(C(F)(F)F)c2C)c(F)cc1Cl             %           95
2  COc1cc(-c2nn(C)c(C(F)(F)F)c2C)c(F)cc1[N+](=O)[O-]             %           20
3  Cc1c(-c2cc(OCC(=O)OC(C)C)c(Cl)cc2F)nn(C)c1C(F)(F)F             %           80
4  Cc1c(-c2cc(F)c([N+](=O)[O-])cc2F)nn(C)c1C(F)(F)F             %            0
5   COc1cc(-c2nn(C)c(C(F)(F)F)c2C)c(F)cc1Cl             %            0

---

Test system: Wheat
Test: post-emergence herbicide test
Type: in vivo
Settings: Triticum aestivum, post-emergence, 4.5 lb/A; read-out: % plant inhibition
Recorded Endpoint: inhibition at 5043.82 g/ha (%)

> print(dat)
                                   molecule  target.under.test  measurement
1  Cc1c(-c2cc(O)c(Cl)cc2F)nn(C)c1C(F)(F)F [Compound 40]              Wheat           25
2  Cc1c(-c2cc(F)c([N+](=O)[O-])cc2F)nn(C)c1C(F)(F)F [Compound 35]              Wheat           25
3  Cn1nc(-c2cc(F)ccc2F)c(C=O)c1C(F)(F)F [Compound 34]              Wheat           10
4  Cc1c(-c2cc(F)ccc2F)nn(C)c1C(F)(F)F [Compound 1]              Wheat           10

---

Tested on: Soybean
Experiment: post-emergence herbicide test
Format: in vivo
Conditions: Glycine max, post-emergence, 0.25 lb/A; read-out: % plant inhibition
Description: Topsoil was placed in aluminum pans having holes in the bottom and compacted to a depth of 1.3 to 1.6 cm from the top of the pan. A predetermined number of seeds of each of several dicotyledonous and monocotyledonous annual plant species and/or vegetative propagules for the perennial plant species were placed on the soil and pressed into the soil surface. The seeds and/or vegetative propagules were covered with soil and leveled. […]
Recorded Endpoint: inhibition at 280.212 g/ha (%)

> print(dat)
                                   molecule  target.under.test  measurement
1  Cc1c(-c2cc(C(N)=O)c(Cl)cc2F)nn(C)c1C(F)(F)F            Soybean           35
2  COCCOC(=O)c1cc(-c2nn(C)c(C(F)(F)F)c2C)c(F)cc1Cl            Soybean           90
3  Cc1c(-c2cc(C(=O)OCC(C)C)c(Cl)cc2F)nn(C)c1C(F)(F)F            Soybean           35
4  CC(C)OC(=O)c1cc(-c2nn(C)c(C(F)(F)F)c2C=O)c(F)cc1Cl            Soybean           85
5  CCCCCCCCCCCCOC(=O)c1cc(-c2nn(C)c(C(F)(F)F)c2C)c(F)cc1Cl            Soybean            5
6  Cc1c(-c2cc(C(=O)OC3CCOC3)c(Cl)cc2F)nn(C)c1C(F)(F)F (stereo not drawn)            Soybean           60
7  CCOC(=O)CCCOC(=O)c1cc(-c2nn(C)c(C(F)(F)F)c2C)c(F)cc1Cl            Soybean           45
8   Cc1c(-c2cc(CO)c(Cl)cc2F)nn(C)c1C(F)(F)F            Soybean           60
9  CCC(C)OC(=O)c1cc(-c2nn(C)c(C(F)(F)F)c2C)c(F)cc1Cl (stereo not drawn)            Soybean           85

---

System: Cocklebur
Assay: pre-emergence herbicide test
Type: in vivo
Conditions: Xanthium strumarium, pre-emergence, 4.5 lb/A; read-out: % plant inhibition
Recorded Endpoint: inhibition at 5043.82 g/ha

> print(dat)
                                item.smiles  measurement
1        Cc1c(-c2cc(F)ccc2F)nn(C)c1C(F)(F)F           0%
2    Cc1c(-c2cc(O)c(Cl)cc2F)nn(C)c1C(F)(F)F         100%
3  Cc1c(-c2cc(F)c([N+](=O)[O-])cc2F)nn(C)c1C(F)(F)F          90%
4      Cn1nc(-c2cc(F)ccc2F)c(C=O)c1C(F)(F)F           0%
